Ref: paper PMC4552634

Tested on: P. falciparum stage V gametocytes
Parameters: BacTiter-Glo ATP luminescence viability of purified stage V gametocytes in 384-well plates, per cent inhibition versus DMSO
TEST CONDITIONS: 48 h, 5 µM; inhibitor
Among all 13,000 compounds or so, about 3,200 (25%) showed an effect of 50% or more. This is one part of the list.
Class membership depends on % Inhibition alone; the intervals are low bin = under -30%, mid bin = from -30% up to 20%, high bin = 20% and over

Task: Please let me know in which category the item O=C(Nc1cccc(-c2nn3ccccc3c2-c2ccnc(Nc3ccccc3)n2)c1)c1c(F)cccc1F belongs.
Output: low bin

Task: Please let me know in which category the item Cc1cc(O)c(CNC2CCCCC2)cc1C belongs.
Output: mid bin

Task: Please let me know in which category the item Oc1ccc2c(c1CNC1CCCCC1)CCCC2 belongs.
Output: high bin

Task: Please let me know in which category the item Oc1ccc(-c2ccccc2)cc1CNC1CCCCC1 belongs.
Output: mid bin

Task: Please let me know in which category the item COc1cc(Nc2nc(N)n(C(=O)c3ccc4c(c3)OCO4)n2)cc(OC)c1OC belongs.
Output: low bin

Task: Please let me know in which category the item CS(=O)(=O)CCCNCc1ccc(-c2cc3c(Nc4ccc(OCc5ccccc5)cc4)ncnc3cn2)o1 belongs.
Output: mid bin

Task: Please let me know in which category the item O=C(CNC1CCCCC1)c1ccc(O)c(O)c1 belongs.
Output: high bin

Task: Please let me know in which category the item CCC(=C(CC)c1ccc(O)c(CNC2CCCCC2)c1)c1ccc(O)c(CNC2CCCCC2)c1 belongs.
Output: high bin
